Target: Biotinylated CD3(Eµ antigen (Creative Biomart) (UniProt P07766 23-126, biotinylated (site not stated)))
Sequence (P07766 23-126): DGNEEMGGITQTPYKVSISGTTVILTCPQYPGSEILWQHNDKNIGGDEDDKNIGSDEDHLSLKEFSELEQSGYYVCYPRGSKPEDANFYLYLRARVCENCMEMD
Assay: BLI (ForteBio BLItz), biotinylated CD3 antigen on streptavidin biosensor, scFv in solution
Measured quantity: Kd (nM)
Answers are plain numbers, in nM.

Quick one: Kd for CD3.26 scFv (scFv, VL-linker-VH scFv) scFv: ELVVTQEPSHTVSPGGTVTLTCRSSTGEVTTSNYANWVQQKPGQAPRGLIGGTIKRAPGTPARFSGSLLGGKAALTLSGVQPEDEAEYYCALWYPNLWVFGGGTKLTVLGATPPETGAETESPGETTGGSAESEPPGEGEVQLLESGGGIVQPGGSLKLSCAASGFTFNTYAMNWVRQAPGKGLEWVARIRSKYNNYATYYADSVKDRFTISRDDSKNTVYLQMNNLKTEDTAVYYCVRHENFGNSYVSWFAHWGQGTLVTVSS ?
221
